test system: NCI-H1944; experiment: normalised cell viability (NPI; 0 = phenylarsine oxide control, 1 = DMSO control) (fraction of DMSO control); higher = more viable cells (less compound toxicity); conditions: glucocorticoid arm: hydrocortisone 2.75 uM pre-treated 2 days and continued; compound 1 µM; 6 days
Over roughly 1,900 compounds, “normalised cell viability (NPI; 0 = phenylarsine oxide control, 1 = DMSO control)” has its median near 1; the lowest 2% begin near 0.039. Shown is part of a subset that was picked to be rich in the lowest values.
measured.parameter: normalised cell viability
Give only the figure.

Consider the worked cases shown below.
CCCCCCCCCCCCCCCC(=O)OC(CC(=O)O)C[N+](C)(C)C (racemic) [Palmitoyl-DL-Carnitine chloride]	1.01
N#C/C(=C/c1ccc(O)c(O)c1)C(=O)N1CCc2ccccc21 [Tyrphostin AG 528]	1.02
C[C@@H](NC(=O)/C(C#N)=C/c1ccc(O)c(O)c1)c1ccccc1 [Tyrphostin AG 527]	0.879

Q: Dear colleague, I am looking for the recorded normalised cell viability of the following compound: S=C(S)OC1CC2CC1C1CCCC21 [D-609 potassium]
A: 1.04

Q: Sample CN1CCc2cc(O)c(O)cc2C(c2ccccc2)C1 (centres undefined) — what was its normalised cell viability?
A: 0.876

Q: Would you kindly share the measured normalised cell viability for c1ccc2c(-c3cnn4cc(-c5ccc(N6CCNCC6)cc5)cnc34)ccnc2c1 ?
A: 1.04

* * *

system: NCI-H1944; assay: normalised cell viability (NPI; 0 = phenylarsine oxide control, 1 = DMSO control) (fraction of DMSO control); higher = more viable cells (less compound toxicity); conditions: glucocorticoid arm: hydrocortisone 2.75 uM pre-treated 2 days and continued; compound 1 µM; 6 days
Whole data set: some 1,900 compounds, median “normalised cell viability (NPI; 0 = phenylarsine oxide control, 1 = DMSO control)” near 1, cut for the lowest 2% near 0.039. Shown is part of a subset that was picked to be rich in the lowest values.
Cut-off 1 on normalised cell viability: below means Fulfilled, at or above means Not fulfilled.

Take a look at these entries with their results.
CCS(=O)(=O)Nc1ccc2[nH]c(O)c(C(=Nc3ccc(CN4CCCCC4)cc3)c3ccccc3)c2c1	Fulfilled
COc1ccc(-c2nc(N3CCOCC3)c3sc(CN(C)c4ncc(C(=O)NO)cn4)cc3n2)cn1	Fulfilled
N[C@H](CO)C(=O)O	Fulfilled
C=CC(=O)Nc1cc(Nc2nccc(-c3cn(C)c4ccccc34)n2)c(OC)cc1N(C)CCN(C)C	Fulfilled
CC#CCOC(=O)c1c(C)nc2sc3c(c2c1N)CCC(O)C3 (centres undefined)	Not fulfilled

Please find the next compound below.
Q: Check if normalised cell viability falls below 1 for OC[C@H]1O[C@@H](n2cnc3c2N=CNC[C@H]3O)C[C@@H]1O .
A: Not fulfilled

* * *

Item-by-item account of normalised cell viability
system: NCI-H1944; experiment: normalised cell viability (NPI; 0 = phenylarsine oxide control, 1 = DMSO control) (fraction of DMSO control); NCI-H1944 is a non-small cell lung cancer line; higher = more viable cells (less compound toxicity); settings: glucocorticoid arm: hydrocortisone 2.75 uM pre-treated 2 days and continued; compound 5 µM; 6 days;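 note: CTB read-out in 384-well plates, triplicate wells, NPI normalised per plate against 1 µM phenylarsine oxide (0) and 0.1% DMSO (1) controls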
Where a name gives a salt, the structure may show the parent alone. The full ranking holds about 1,900 compounds; the median of “normalised cell viability (NPI; 0 = phenylarsine oxide control, 1 = DMSO control)” is about 1, and the lowest 2% start at about 0.039. For the sample, the lowest values were picked, then their nearest neighbours and some compounds at random.

Previously resolved entries follow.
CCCCCCCCCC(=O)NC(CN1CCOCC1)[C@H](O)c1ccccc1 (mixture of isomers)	1.01
CC(C)c1cc(-c2ccc(F)c3ccccc23)nc(N)n1	0.993
CCCCC/C=C\C[C@@H](O)/C=C/c1cccc(C[C@@H](O)CCCCO)n1	1.04

Q: For the compound shown here, NC(C(=O)O)C(O)C(=O)O (racemic) [DL-threo-beta-hydroxyaspartic acid] , give the reported normalised cell viability.
A: 1.01

Q: Recorded normalised cell viability for CC(C)C[C@H](NC(=O)[C@H](CCc1ccccc1)NC(=O)CN1CCOCC1)C(=O)N[C@@H](Cc1ccccc1)C(=O)N[C@@H](CC(C)C)C(=O)[C@@]1(C)CO1 [Carfilzomib] , please?
A: 0.986

Q: Form field: reported normalised cell viability of CC(C)C[C@H](NC(=O)[C@H](CCc1ccccc1)NC(=O)CN1CCOCC1)C(=O)N[C@@H](Cc1ccccc1)C(=O)N[C@@H](CC(C)C)C(=O)[C@@]1(C)CO1 [Carfilzomib (PR-171)]
A: 0.12

Q: I would be grateful if you could share the reported normalised cell viability for CCCN(CCc1ccccc1)C1CCc2c(O)cccc2C1 (racemic) [(±)-PPHT hydrochloride] .
A: 0.966
